Reported Selectivity ratio values follow for various compounds
Assay: Selectivity ratio of Ki/Km for human SphK1 to Ki/Km for mouse SphK2

# structureSmiles, Selectivity ratio
measured = [
    ("CCCCCCCCc1ccc([C@H]2CC[C@H]([N+](C)(C)C)CC2)cc1", 3.75),
    ("CCCCCCCCc1ccc([C@H]2CC[C@H](N)CC2)cc1", 0.55),
    ("CCCCCCCCc1ccc([C@H]2CC[C@H]([N+](C)(C)CCO)CC2)cc1", 2.5),
    ("CCCCCCCCc1ccc([C@H]2CC[C@H]([N+](C)(C)CCC)CC2)cc1", 2.94),
    ("CCCCCCCCc1ccc([C@H]2CC[C@H](N(C)C)CC2)cc1", 0.74),
    ("CCCCCCCCc1ccc([C@H]2CC[C@H](NCCO)CC2)cc1", 1.23),
]

====

Target: Sphingosine kinase 2 (Mus musculus) (UniProt Q9JIA7)
Sequence (Q9JIA7 whole entry): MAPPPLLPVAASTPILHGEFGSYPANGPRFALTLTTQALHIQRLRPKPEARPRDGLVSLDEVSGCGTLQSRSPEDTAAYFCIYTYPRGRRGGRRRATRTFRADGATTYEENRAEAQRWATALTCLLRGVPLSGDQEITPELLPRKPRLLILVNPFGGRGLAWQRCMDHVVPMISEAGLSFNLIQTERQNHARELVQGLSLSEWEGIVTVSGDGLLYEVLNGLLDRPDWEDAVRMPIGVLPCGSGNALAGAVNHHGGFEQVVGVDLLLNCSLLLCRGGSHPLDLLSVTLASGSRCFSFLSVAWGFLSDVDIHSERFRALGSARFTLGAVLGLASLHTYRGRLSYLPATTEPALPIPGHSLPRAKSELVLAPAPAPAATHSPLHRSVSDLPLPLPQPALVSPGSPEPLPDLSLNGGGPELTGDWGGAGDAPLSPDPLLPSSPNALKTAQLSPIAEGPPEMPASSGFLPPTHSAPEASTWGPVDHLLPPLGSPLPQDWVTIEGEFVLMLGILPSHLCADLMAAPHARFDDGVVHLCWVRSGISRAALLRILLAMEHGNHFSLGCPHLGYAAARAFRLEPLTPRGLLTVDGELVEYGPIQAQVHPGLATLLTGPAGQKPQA
Experiment: Inhibition of mouse SphK2 expressed in baculovirus infected Sf9 insect cells assessed as remaining activity using sphingosine and [gamma-(32)P]-ATP at 100 uM by scintillation proximity counting

# molecule, Activity
data = [
    ("CCCCCCCCc1ccc(C2CCC(N)(C#N)CC2)cc1 (stereo not drawn)", "61.8%"),
    ("CCCCCCCCc1ccc([C@H]2CC[C@H](O)CC2)cc1", "70.9%"),
    ("CCCCCCCCc1ccc([C@H]2CC[C@H](NCc3ccncc3)CC2)cc1", "23%"),
    ("CCCCCCCCc1ccc([C@H]2CC[C@H]([N+](C)(C)C)CC2)cc1", "4%"),
    ("CCCCCCCCc1ccc([C@H]2CC[C@@H]([N+](C)(C)CCO)CC2)cc1", "32.6%"),
    ("CCCCCCCCc1ccc([C@H]2CC[C@H](NCCC)CC2)cc1", "5.5%"),
    ("C=CCN[C@H]1CC[C@H](c2ccc(CCCCCCCC)cc2)CC1", "5.7%"),
    ("CCCCCCCCc1ccc([C@H]2CC[C@@H](N(C)CCC)CC2)cc1", "65.5%"),
    ("CCCCCCCCc1ccc(C2CCC(=CCO)CC2)cc1 (stereo not drawn)", "66.7%"),
    ("CCCCCCCCc1ccc([C@H]2CC[C@H](NC3CC3)CC2)cc1", "77%"),
    ("CCCCCCCCc1ccc([C@H]2CC[C@@H]([N+](C)(C)C)CC2)cc1", "8.3%"),
    ("CCCCCCCCc1ccc([C@H]2CC[C@@H](NCCCC)CC2)cc1", "60.6%"),
    ("CCCCCCCCc1ccc([C@H]2CC[C@H](N(C)C)CC2)cc1", "9%"),
    ("CCCCCCCCc1ccc([C@H]2CC[C@H]([N+](C)(C)C(C)C)CC2)cc1", "11.5%"),
    ("CCCCCCCCc1ccc([C@H]2CC[C@@H]([N+](C)(C)CCC)CC2)cc1", "3.2%"),
    ("CCCCCCCCc1ccc([C@H]2CC[C@H](NCCCC)CC2)cc1", "20.1%"),
    ("CCCCCCCCc1ccc([C@H]2CC[C@H]([N+](C)(C)CCC)CC2)cc1", "7.2%"),
    ("C=CCN[C@H]1CC[C@@H](c2ccc(CCCCCCCC)cc2)CC1", "100%"),
    ("CCCCCCCCc1ccc(C2CCC(O)(C[N+](=O)[O-])CC2)cc1 (stereo not drawn)", "52.7%"),
    ("CCCCCCCCc1ccc([C@H]2CC[C@H](NCCO)CC2)cc1", "8.5%"),
    ("CCCCCCCCc1ccc([C@H]2CC[C@H](NC)CC2)cc1", "7.7%"),
    ("CCCCCCCCc1ccc([C@H]2CC[C@H](NC(C)C)CC2)cc1", "23.9%"),
    ("C#CCN[C@H]1CC[C@@H](c2ccc(CCCCCCCC)cc2)CC1", "101%"),
]

====

Below, each entry is listed alongside its reported Activity.
Biological target: Sphingosine kinase 1 (Homo sapiens, UniProt Q9NYA1)
Sequence (Q9NYA1 whole entry): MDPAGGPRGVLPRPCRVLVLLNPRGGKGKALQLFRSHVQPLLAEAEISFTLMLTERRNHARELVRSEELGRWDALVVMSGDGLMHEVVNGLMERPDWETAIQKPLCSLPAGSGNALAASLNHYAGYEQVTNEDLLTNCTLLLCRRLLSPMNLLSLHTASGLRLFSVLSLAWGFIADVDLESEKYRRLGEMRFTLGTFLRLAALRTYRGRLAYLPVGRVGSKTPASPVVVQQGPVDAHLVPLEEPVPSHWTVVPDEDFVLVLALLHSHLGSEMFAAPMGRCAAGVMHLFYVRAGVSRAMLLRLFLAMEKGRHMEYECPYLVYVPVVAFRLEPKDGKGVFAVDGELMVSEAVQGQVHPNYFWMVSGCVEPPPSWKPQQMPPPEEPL
Test: Inhibition of human SphK1 expressed in baculovirus infected Sf9 insect cells assessed as remaining activity using sphingosine and [gamma-(32)P]-ATP as substrate at 100 uM by scintillation proximity counting
readoutName: Activity (%)

# structureSmiles, testResult
data = [
    ("C#CCN[C@H]1CC[C@H](c2ccc(CCCCCCCC)cc2)CC1", 109),
    ("CCCCCCCCc1ccc([C@H]2CC[C@H]([N+](C)(C)C(C)C)CC2)cc1", 49.1),
    ("CCCCCCCCc1ccc([C@H]2CC[C@@H](N(C)C)CC2)cc1", 83.9),
    ("CCCCCCCCc1ccc([C@H]2CC[C@H](NC)CC2)cc1", 15.7),
    ("CCCCCCCCc1ccc([C@H]2CC[C@@H](NC(C)C)CC2)cc1", 90),
    ("CCCCCCCCc1ccc([C@H]2CC[C@H](NCCC)CC2)cc1", 15.8),
]

====

Molecular target: Sphingosine kinase 1 (Homo sapiens)
Assay: Inhibition of human SphK1 expressed in baculovirus infected Sf9 insect cells assessed as remaining activity using sphingosine and [gamma-(32)P]-ATP as substrate at 100 uM by scintillation proximity counting
Entries and their Activity values follow.
readoutName: Activity (%)

# compound, testResult
data = [
    ("CCCCCCCCc1ccc([C@H]2CC[C@H](NCCO)CC2)cc1", 21.6),
    ("CCCCCCCCc1ccc([C@H]2CC[C@@H]([N+](C)(C)C)CC2)cc1", 65.8),
    ("CCCCCCCCc1ccc([C@H]2CC[C@@H](NC)CC2)cc1", 69.8),
    ("C#CCN[C@H]1CC[C@@H](c2ccc(CCCCCCCC)cc2)CC1", 100),
    ("CCCCCCCCc1ccc([C@H]2CC[C@H](NCc3ccccc3)CC2)cc1", 83.9),
    ("CCCCCCCCc1ccc([C@H]2CC[C@@H]([N+](C)(C)CCC)CC2)cc1", 25.1),
    ("CCCCCCCCc1ccc(C2CCC(=NO)CC2)cc1 (configuration not stated)", 130),
    ("CCCCCCCCc1ccc([C@H]2CC[C@H]([N+](C)(C)C)CC2)cc1", 10.2),
    ("CCCCCCCCc1ccc(C2CCC(=CCO)CC2)cc1 (configuration not stated)", 100),
    ("CCCCCCCCc1ccc([C@H]2CC[C@@H](NCCC)CC2)cc1", 75.6),
    ("C=CC[N+](C)(C)[C@H]1CC[C@H](c2ccc(CCCCCCCC)cc2)CC1", 30.4),
    ("CCCCCCCCc1ccc([C@H]2CC[C@@H]([N+](C)(C)CCO)CC2)cc1", 80.9),
    ("CCCCCCCCc1ccc([C@H]2CC[C@H]([N+](C)(C)CCO)CC2)cc1", 10.5),
    ("CCCCCCCCc1ccc(C2CCC(N)(C#N)CC2)cc1 (configuration not stated)", 101),
    ("CCCCCCCCc1ccc([C@H]2CC[C@H](NC3CC3)CC2)cc1", 65),
    ("CCCCCCCCc1ccc([C@H]2CC[C@@H](NCc3ccccc3)CC2)cc1", 98.4),
    ("CCCCCCCCc1ccc([C@H]2CC[C@H]([N+](C)(C)Cc3ccccc3)CC2)cc1", 25.7),
    ("CCCCCCCCc1ccc(C2CCC(=CC(=O)OC)CC2)cc1 (configuration not stated)", 101),
    ("CCCCCCCCc1ccc(C2CCC(O)(C[N+](=O)[O-])CC2)cc1 (configuration not stated)", 100),
    ("CCCCCCCCc1ccc([C@H]2CC[C@H](NCc3ccncc3)CC2)cc1", 33),
    ("CCCCCCCCc1ccc([C@H]2CC[C@H]([N+](C)(C)CCC)CC2)cc1", 5.3),
    ("CCCCCCCCc1ccc([C@H]2CC[C@H](N(C)CCC)CC2)cc1", 77),
]

====

pKi: −log10 of the molar value.
# pKi per entry for Sphingosine kinase 1 (Homo sapiens, UniProt Q9NYA1)
readoutName: pKi

# structureSmiles, qual, testResult
rows = [
    ("CCCCCCCCc1ccc([C@H]2CC[C@H](NCCO)CC2)cc1", "=", 4.66),
    ("CCCCCCCCc1ccc([C@H]2CC[C@H](N(C)C)CC2)cc1", "=", 4.40),
    ("CCCCCCCCc1ccc([C@H]2CC[C@H]([N+](C)(C)C(C)C)CC2)cc1", "<", 4.00),
    ("CCCCCCCCc1ccc([C@H]2CC[C@@H](NC)CC2)cc1", "<", 4.00),
]

====

molecules and their reported Activity
Target: Sphingosine kinase 1 (Homo sapiens)
Experiment: Inhibition of human SphK1 expressed in baculovirus infected Sf9 insect cells assessed as remaining activity using sphingosine and [gamma-(32)P]-ATP as substrate at 100 uM by scintillation proximity counting

# structureSmiles, measurementUnits, Activity
data = [
    ("CCCCCCCCc1ccc([C@H]2CC[C@H](O)CC2)cc1", "%", 113),
    ("C=CCN[C@H]1CC[C@H](c2ccc(CCCCCCCC)cc2)CC1", "%", 19),
    ("CCCCCCCCc1ccc([C@H]2CC[C@@H]([N+](C)(C)C(C)C)CC2)cc1", "%", 101),
    ("CCCCCCCCc1ccc([C@H]2CC[C@H](NCCCC)CC2)cc1", "%", 20.5),
    ("CCCCCCCCc1ccc([C@H]2CC[C@@H](NCCO)CC2)cc1", "%", 22.4),
    ("CCCCCCCCc1ccc([C@H]2CC[C@H](N(C)C)CC2)cc1", "%", 46.3),
    ("CCCCCCCCc1ccc([C@H]2CC[C@@H](NCCCC)CC2)cc1", "%", 100),
    ("C=CCN[C@H]1CC[C@@H](c2ccc(CCCCCCCC)cc2)CC1", "%", 91.8),
    ("CCCCCCCCc1ccc([C@H]2CC[C@@H](N(C)C(C)C)CC2)cc1", "%", 113),
    ("CCCCCCCCc1ccc([C@H]2CC[C@H](NC(C)C)CC2)cc1", "%", 24.6),
    ("CCCCCCCCc1ccc([C@H]2CC[C@@H](NC3CC3)CC2)cc1", "%", 113),
    ("CCCCCCCCc1ccc([C@H]2CC[C@@H](N(C)CCC)CC2)cc1", "%", 90.7),
    ("CCCCCCCCc1ccc([C@H]2CC[C@H](N)CC2)cc1", "%", 47),
]
